- Measurement protocol: Pharmacokinetics assay in rats
- Type: in vivo
- Reported conditions: rat; male Sprague-Dawley rats, po, 5 mg/kg, plasma; read-out: Cmax/C0
Observable: Cmax (ng/mL)
Answers are plain numbers, in ng/mL.

Here's what some known entries look like.
Compound	Units label	Experimental result
CCOc1nc2[nH]cc(F)c2cc1Oc1cc(N2CCC3(CC2)CC(N2CCN(Cc4ccc(F)c(F)c4)C[C@H]2c2ccccc2C(C)C)C3)ccc1C(=O)NS(=O)(=O)c1cnc(NC[C@H]2CC[C@](C)(O)CC2)c([N+](=O)[O-])c1 [Example 4]	ng/mL	176
COc1nc2[nH]cc(F)c2cc1Oc1cc(N2CCC3(CC2)CC(N2CCN(Cc4ccc(OC)c5oc(C)cc45)C[C@H]2c2ccccc2C(C)C)C3)ccc1C(=O)NS(=O)(=O)c1cnc(NC[C@H]2CC[C@](C)(O)CC2)c([N+](=O)[O-])c1 [Example 13]	ng/mL	198

Batch of 3 compounds: report Cmax for each.
1. COc1ccc(CN2CCN(C3CC4(CCN(c5ccc(C(=O)NS(=O)(=O)c6cnc(NC[C@H]7CC[C@](C)(O)CC7)c([N+](=O)[O-])c6)c(Oc6cc7c(F)c[nH]c7nc6OC)c5)CC4)C3)[C@H](c3ccccc3C(C)C)C2)cc1 [Example 1]
2. COc1nc2[nH]cc(F)c2cc1Oc1cc(N2CCC3(CC2)CC(N2CCN(Cc4ccc(C5CC5)c(OC)n4)C[C@H]2c2ccccc2C(C)C)C3)ccc1C(=O)NS(=O)(=O)c1cnc(NC[C@H]2CC[C@](C)(O)CC2)c([N+](=O)[O-])c1 [Example 289]
3. CCOc1nc2[nH]cc(F)c2cc1Oc1cc(N2CCC3(CC2)CC(N2CCN(Cc4ccc(OC)cc4)C[C@H]2c2ccccc2C(C)C)C3)ccc1C(=O)NS(=O)(=O)c1cnc(NC[C@H]2CC[C@](C)(O)CC2)c([N+](=O)[O-])c1 [Example 2]

1. 227
2. 357
3. 166

* * *

Record form. Attribute: IC50. Fill in for each entry.
- Test system: RS4;11-BCL-2 G101V cells
- Measurement protocol: Cell proliferation assay (MTS), RS4;11-BCL-2 G101V engineered cells
- Format: cell-based
- Reported conditions: Homo sapiens, 120 h, read-out: RS4, 11 BCL2-G101V IC50
Give bare numbers, in nM.

Compound	Units label	IC50
COc1ccc(CN2CCN(C3CC4(CCN(c5ccc(C(=O)NS(=O)(=O)c6cnc(NC[C@H]7CC[C@](C)(O)CC7)c([N+](=O)[O-])c6)c(Oc6cnc7[nH]cc(F)c7c6)c5)CC4)C3)[C@H](c3ccccc3C(C)C)C2)nc1	nM	1
COc1ccc(CN2CCN(C3CC4(CCN(c5ccc(C(=O)NS(=O)(=O)c6cnc(NC[C@H]7CC[C@](C)(O)CC7)c([N+](=O)[O-])c6)c(Oc6cc7c(F)c[nH]c7nc6OC)c5)CC4)C3)[C@H](c3ccccc3C(C)C)C2)cn1	nM	1
COc1cc(CN2CCN(C3CC4(CCN(c5ccc(C(=O)NS(=O)(=O)c6cnc(NC[C@H]7CC[C@](C)(O)CC7)c([N+](=O)[O-])c6)c(Oc6cc7c(F)c[nH]c7nc6OC)c5)CC4)C3)[C@H](c3ccccc3C(C)C)C2)cc(N)n1	nM	1
COc1cc(CN2CCN(C3CC4(CCN(c5ccc(C(=O)NS(=O)(=O)c6cnc(NC[C@H]7CC[C@](C)(O)CC7)c([N+](=O)[O-])c6)c(Oc6cc7c(F)c[nH]c7nc6OC)c5)CC4)C3)[C@H](c3ccccc3C(C)C)C2)cc(F)n1	nM	1
COc1nc2[nH]cc(F)c2cc1Oc1cc(N2CCC3(CC2)CC(N2CCN(Cc4ccc5c(c4)OCO5)C[C@H]2c2ccccc2C(C)C)C3)ccc1C(=O)NS(=O)(=O)c1cnc(NC[C@H]2CC[C@](C)(O)CC2)c([N+](=O)[O-])c1	nM	1
COc1ccc(CN2CCN(C3CC4(CCN(c5ccc(C(=O)NS(=O)(=O)c6cnc(NC[C@H]7CC[C@](C)(O)CC7)c([N+](=O)[O-])c6)c(Oc6cc7c(F)c[nH]c7nc6OC)c5)CC4)C3)[C@H](c3ccccc3C3CC3)C2)cc1	nM	1
CC(C)c1ccccc1[C@@H]1CN(Cc2ccncc2)CCN1C1CC2(CCN(c3ccc(C(=O)NS(=O)(=O)c4cnc(NC[C@H]5CC[C@](C)(O)CC5)c([N+](=O)[O-])c4)c(Oc4cnc5[nH]cc(F)c5c4)c3)CC2)C1	nM	1
COc1nc2[nH]cc(F)c2cc1Oc1cc(N2CCC3(CC2)CC(N2CCOC[C@H]2c2ccccc2C(C)C)C3)ccc1C(=O)NS(=O)(=O)c1cnc(NC[C@H]2CC[C@](C)(O)CC2)c([N+](=O)[O-])c1	nM	1

Can you give me IC50 for all of these, one by one?
1. CCOc1nc2[nH]cc(F)c2cc1Oc1cc(N2CCC3(CC2)CC(N2CCN(Cc4ccc(OC)c(OC)c4)C[C@H]2c2ccccc2C(C)C)C3)ccc1C(=O)NS(=O)(=O)c1cnc(NC[C@H]2CC[C@](C)(O)CC2)c([N+](=O)[O-])c1
2. CCOc1nc2[nH]cc(F)c2cc1Oc1cc(N2CCC3(CC2)CC(N2CCN(CC)C[C@H]2c2ccccc2C(C)C)C3)ccc1C(=O)NS(=O)(=O)c1cnc(NC[C@H]2CC[C@](C)(O)CC2)c([N+](=O)[O-])c1
3. CC(C)c1ccccc1[C@@H]1CN(C2CCC(O)CC2)CCN1C1CC2(CCN(c3ccc(C(=O)NS(=O)(=O)c4cnc(NC[C@H]5CC[C@](C)(O)CC5)c([N+](=O)[O-])c4)c(Oc4cnc5[nH]cc(F)c5c4)c3)CC2)C1 (stereo partly shown)
4. COc1cc(CN2CCN(C3CC4(CCN(c5ccc(C(=O)NS(=O)(=O)c6cnc(NC[C@H]7CC[C@](C)(O)CC7)c([N+](=O)[O-])c6)c(Oc6cnc7[nH]cc(F)c7c6)c5)CC4)C3)[C@H](c3ccccc3C(C)C)C2)cnc1OC
5. COc1nc2[nH]cc(F)c2cc1Oc1cc(N2CCC3(CC2)CC(N2CCN(Cc4ccc(OC(F)F)cc4)C[C@H]2c2ccccc2C(C)C)C3)ccc1C(=O)NS(=O)(=O)c1cnc(NC[C@H]2CC[C@](C)(O)CC2)c([N+](=O)[O-])c1
6. COc1cc(CN2CCN(C3CC4(CCN(c5ccc(C(=O)NS(=O)(=O)c6cnc(NC[C@H]7CC[C@](C)(O)CC7)c([N+](=O)[O-])c6)c(Oc6cc7c(F)c[nH]c7nc6OC)c5)CC4)C3)[C@H](c3ccccc3C(C)C)C2)ccn1

[1, 1, 1, 1, 1, 1]

Record IC50 per entry; entries follow.
1. COc1nc2[nH]cc(F)c2cc1Oc1cc(N2CCC3(CC2)CC(N2CCN(C)C[C@H]2c2ccccc2C(C)C)C3)ccc1C(=O)NS(=O)(=O)c1cnc(NC[C@H]2CC[C@](C)(O)CC2)c([N+](=O)[O-])c1
2. COc1nc2[nH]cc(F)c2cc1Oc1cc(N2CCC3(CC2)CC(N2CCN(C4CCC(O)CC4)C[C@H]2c2ccccc2C(C)C)C3)ccc1C(=O)NS(=O)(=O)c1cnc(NC[C@H]2CC[C@](C)(O)CC2)c([N+](=O)[O-])c1 (single isomer, unassigned)

1
1
